system-tested: T1, 4H452-AA
T1 chain: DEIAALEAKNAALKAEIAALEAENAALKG
run-description: two-hybrid library CCmax;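 also: natural log of median RNA to DNA barcode read ratio; higher means stronger binding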
condition-description: mean of both orientations
# interaction score listing for each entry below
property-name: interaction score

INSERT INTO measurements (binder, experimental_result) VALUES
  ('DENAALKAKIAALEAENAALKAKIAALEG [4H1821-AA]', -1.25),
  ('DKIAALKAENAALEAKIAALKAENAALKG [4H2732-AA]', 2.3),
  ('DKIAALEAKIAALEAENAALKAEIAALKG [4H2330-AA]', -1.85),
  ('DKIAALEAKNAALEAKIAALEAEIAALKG [4H2466-AA]', -1.37),
  ('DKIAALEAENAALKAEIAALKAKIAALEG [4H2253-AA]', -1.74),
  ('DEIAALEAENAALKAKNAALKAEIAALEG [4H249-AA]', -1.53),
  ('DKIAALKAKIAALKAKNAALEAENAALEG [4H2931-AA]', -1.98);
